Assay: Steady state phosphorescence: emission maxima, quantum yields, lifetimes
Type: physicochemical
Conditions: Table I
attribute measured: φp
Reply with just the number.

compound	assay result
O=C(O)c1cc(C(=O)O)cc(C2=C3N=C(C(c4cc(C(=O)O)cc(C(=O)O)c4)=c4c5cc6ccccc6cc5c5[n]4[Pt][n]4c2c2cc6ccccc6cc2c4C(c2cc(C(=O)O)cc(C(=O)O)c2)=C2N=C(C=5c4cc(C(=O)O)cc(C(=O)O)c4)c4cc5ccccc5cc42)c2cc4ccccc4cc23)c1 [Octacarboxytetra naphthoporphyrin Pt, Octacarboxytetra naphthoporphyrin]	0.06
O=C(O)c1cc(C(=O)O)cc(C2=C3N=C(C(c4cc(C(=O)O)cc(C(=O)O)c4)=c4c5ccccc5c5[n]4[Pt][n]4c2c2ccccc2c4C(c2cc(C(=O)O)cc(C(=O)O)c2)=C2N=C(C=5c4cc(C(=O)O)cc(C(=O)O)c4)c4ccccc42)c2ccccc23)c1	0.30
O=C(O)c1cc(C(=O)O)cc(C2=C3C=CC(=N3)C(c3cc(C(=O)O)cc(C(=O)O)c3)=c3ccc4[n]3[Pt][n]3c2ccc3C(c2cc(C(=O)O)cc(C(=O)O)c2)=C2C=CC(=N2)C=4c2cc(C(=O)O)cc(C(=O)O)c2)c1 [Octacarboxyporphyrin Pt, Octacarboxyporphyrin]	0.24

Attention now shifts to the item below.
Name the reported φp value associated with the compound O=C(O)c1cc(C(=O)O)cc(C2=C3N=C(C(c4cc(C(=O)O)cc(C(=O)O)c4)=c4c5ccccc5c5[n]4[Pd][n]4c2c2ccccc2c4C(c2cc(C(=O)O)cc(C(=O)O)c2)=C2N=C(C=5c4cc(C(=O)O)cc(C(=O)O)c4)c4ccccc42)c2ccccc23)c1
0.09

---

Experiment: Optical absorption spectra (UV-Vis spectrophotometer)
Assay type: physicochemical
Settings: Table I, second band
attribute measured: Absorption log e
Reply with just the number.

compound	attribute measured	assay result
O=C(O)c1cc(C(=O)O)cc(C2=C3N=C(C(c4cc(C(=O)O)cc(C(=O)O)c4)=c4c5ccccc5c5[n]4[Pd][n]4c2c2ccccc2c4C(c2cc(C(=O)O)cc(C(=O)O)c2)=C2N=C(C=5c4cc(C(=O)O)cc(C(=O)O)c4)c4ccccc42)c2ccccc23)c1	Absorption log e	5.00

Name the reported Absorption log e value associated with the compound O=C(O)c1cc(C(=O)O)cc(C2=C3N=C(C(c4cc(C(=O)O)cc(C(=O)O)c4)=c4c5ccccc5c5[n]4[Pt][n]4c2c2ccccc2c4C(c2cc(C(=O)O)cc(C(=O)O)c2)=C2N=C(C=5c4cc(C(=O)O)cc(C(=O)O)c4)c4ccccc42)c2ccccc23)c1
5.00

O=C(O)c1cc(C(=O)O)cc(C2=C3C=CC(=N3)C(c3cc(C(=O)O)cc(C(=O)O)c3)=c3ccc4[n]3[Pt][n]3c2ccc3C(c2cc(C(=O)O)cc(C(=O)O)c2)=C2C=CC(=N2)C=4c2cc(C(=O)O)cc(C(=O)O)c2)c1 [Octacarboxyporphyrin Pt, Octacarboxyporphyrin] , same question.
4.50

O=C(O)c1cc(C(=O)O)cc(C2=C3N=C(C(c4cc(C(=O)O)cc(C(=O)O)c4)=c4c5cc6ccccc6cc5c5[n]4[Pt][n]4c2c2cc6ccccc6cc2c4C(c2cc(C(=O)O)cc(C(=O)O)c2)=C2N=C(C=5c4cc(C(=O)O)cc(C(=O)O)c4)c4cc5ccccc5cc42)c2cc4ccccc4cc23)c1 [Octacarboxytetra naphthoporphyrin Pt, Octacarboxytetra naphthoporphyrin] , same question.
5.28

---

Test: Optical absorption spectra (UV-Vis spectrophotometer)
Type: physicochemical
Details: Table I, second band
Quick reference for Absorption λmax among some molecules
Respond with the bare value in nm.

Here's what some known entries look like.
smiles str	Absorption λmax (nm)
O=C(O)c1cc(C(=O)O)cc(C2=C3N=C(C(c4cc(C(=O)O)cc(C(=O)O)c4)=c4c5ccccc5c5[n]4[Pd][n]4c2c2ccccc2c4C(c2cc(C(=O)O)cc(C(=O)O)c2)=C2N=C(C=5c4cc(C(=O)O)cc(C(=O)O)c4)c4ccccc42)c2ccccc23)c1	635
O=C(O)c1cc(C(=O)O)cc(C2=C3N=C(C(c4cc(C(=O)O)cc(C(=O)O)c4)=c4c5ccccc5c5[n]4[Pt][n]4c2c2ccccc2c4C(c2cc(C(=O)O)cc(C(=O)O)c2)=C2N=C(C=5c4cc(C(=O)O)cc(C(=O)O)c4)c4ccccc42)c2ccccc23)c1	622
O=C(O)c1cc(C(=O)O)cc(C2=C3C=CC(=N3)C(c3cc(C(=O)O)cc(C(=O)O)c3)=c3ccc4[n]3[Pt][n]3c2ccc3C(c2cc(C(=O)O)cc(C(=O)O)c2)=C2C=CC(=N2)C=4c2cc(C(=O)O)cc(C(=O)O)c2)c1	512

Attention now shifts to the item below.
Name the reported Absorption λmax value associated with the molecule O=C(O)c1cc(C(=O)O)cc(C2=C3N=C(C(c4cc(C(=O)O)cc(C(=O)O)c4)=c4c5cc6ccccc6cc5c5[n]4[Pt][n]4c2c2cc6ccccc6cc2c4C(c2cc(C(=O)O)cc(C(=O)O)c2)=C2N=C(C=5c4cc(C(=O)O)cc(C(=O)O)c4)c4cc5ccccc5cc42)c2cc4ccccc4cc23)c1
700

---

Test: Steady state phosphorescence: emission maxima, quantum yields, lifetimes
Assay type: physicochemical
Conditions: Table I
attribute measured: τ0 (μs)
Respond with the bare value in μs.

Here's what some known entries look like.
molecule	unit abbreviation	τ0
O=C(O)c1cc(C(=O)O)cc(C2=C3N=C(C(c4cc(C(=O)O)cc(C(=O)O)c4)=c4c5ccccc5c5[n]4[Pt][n]4c2c2ccccc2c4C(c2cc(C(=O)O)cc(C(=O)O)c2)=C2N=C(C=5c4cc(C(=O)O)cc(C(=O)O)c4)c4ccccc42)c2ccccc23)c1	μs	41
O=C(O)c1cc(C(=O)O)cc(C2=C3N=C(C(c4cc(C(=O)O)cc(C(=O)O)c4)=c4c5ccccc5c5[n]4[Pd][n]4c2c2ccccc2c4C(c2cc(C(=O)O)cc(C(=O)O)c2)=C2N=C(C=5c4cc(C(=O)O)cc(C(=O)O)c4)c4ccccc42)c2ccccc23)c1	μs	210
O=C(O)c1cc(C(=O)O)cc(C2=C3C=CC(=N3)C(c3cc(C(=O)O)cc(C(=O)O)c3)=c3ccc4[n]3[Pt][n]3c2ccc3C(c2cc(C(=O)O)cc(C(=O)O)c2)=C2C=CC(=N2)C=4c2cc(C(=O)O)cc(C(=O)O)c2)c1 [Octacarboxyporphyrin Pt, Octacarboxyporphyrin]	μs	53

Attention now shifts to the item below.
Name the reported τ0 value associated with the molecule O=C(O)c1cc(C(=O)O)cc(C2=C3N=C(C(c4cc(C(=O)O)cc(C(=O)O)c4)=c4c5cc6ccccc6cc5c5[n]4[Pt][n]4c2c2cc6ccccc6cc2c4C(c2cc(C(=O)O)cc(C(=O)O)c2)=C2N=C(C=5c4cc(C(=O)O)cc(C(=O)O)c4)c4cc5ccccc5cc42)c2cc4ccccc4cc23)c1 [Octacarboxytetra naphthoporphyrin Pt, Octacarboxytetra naphthoporphyrin]
12

---

Assay: Optical absorption spectra (UV-Vis spectrophotometer)
Type: physicochemical
Conditions: Table I, first band
attribute measured: Absorption λmax (nm)
Respond with the bare value in nm.

Here's what some known entries look like.
smiles str	Absorption λmax, nm
O=C(O)c1cc(C(=O)O)cc(C2=C3N=C(C(c4cc(C(=O)O)cc(C(=O)O)c4)=c4c5cc6ccccc6cc5c5[n]4[Pt][n]4c2c2cc6ccccc6cc2c4C(c2cc(C(=O)O)cc(C(=O)O)c2)=C2N=C(C=5c4cc(C(=O)O)cc(C(=O)O)c4)c4cc5ccccc5cc42)c2cc4ccccc4cc23)c1	441
O=C(O)c1cc(C(=O)O)cc(C2=C3N=C(C(c4cc(C(=O)O)cc(C(=O)O)c4)=c4c5ccccc5c5[n]4[Pd][n]4c2c2ccccc2c4C(c2cc(C(=O)O)cc(C(=O)O)c2)=C2N=C(C=5c4cc(C(=O)O)cc(C(=O)O)c4)c4ccccc42)c2ccccc23)c1	446
O=C(O)c1cc(C(=O)O)cc(C2=C3N=C(C(c4cc(C(=O)O)cc(C(=O)O)c4)=c4c5ccccc5c5[n]4[Pt][n]4c2c2ccccc2c4C(c2cc(C(=O)O)cc(C(=O)O)c2)=C2N=C(C=5c4cc(C(=O)O)cc(C(=O)O)c4)c4ccccc42)c2ccccc23)c1	433

Name the reported Absorption λmax value associated with the compound O=C(O)c1cc(C(=O)O)cc(C2=C3C=CC(=N3)C(c3cc(C(=O)O)cc(C(=O)O)c3)=c3ccc4[n]3[Pt][n]3c2ccc3C(c2cc(C(=O)O)cc(C(=O)O)c2)=C2C=CC(=N2)C=4c2cc(C(=O)O)cc(C(=O)O)c2)c1
406

---

Assay: Optical absorption spectra (UV-Vis spectrophotometer)
Format: physicochemical
Conditions: Table I, first band
attribute measured: Absorption log e
Reply with just the number.

smiles str	assay result
O=C(O)c1cc(C(=O)O)cc(C2=C3N=C(C(c4cc(C(=O)O)cc(C(=O)O)c4)=c4c5ccccc5c5[n]4[Pt][n]4c2c2ccccc2c4C(c2cc(C(=O)O)cc(C(=O)O)c2)=C2N=C(C=5c4cc(C(=O)O)cc(C(=O)O)c4)c4ccccc42)c2ccccc23)c1	5.23

Name the reported Absorption log e value associated with the compound O=C(O)c1cc(C(=O)O)cc(C2=C3N=C(C(c4cc(C(=O)O)cc(C(=O)O)c4)=c4c5cc6ccccc6cc5c5[n]4[Pt][n]4c2c2cc6ccccc6cc2c4C(c2cc(C(=O)O)cc(C(=O)O)c2)=C2N=C(C=5c4cc(C(=O)O)cc(C(=O)O)c4)c4cc5ccccc5cc42)c2cc4ccccc4cc23)c1
5.14

O=C(O)c1cc(C(=O)O)cc(C2=C3N=C(C(c4cc(C(=O)O)cc(C(=O)O)c4)=c4c5ccccc5c5[n]4[Pd][n]4c2c2ccccc2c4C(c2cc(C(=O)O)cc(C(=O)O)c2)=C2N=C(C=5c4cc(C(=O)O)cc(C(=O)O)c4)c4ccccc42)c2ccccc23)c1 , same question.
5.46

O=C(O)c1cc(C(=O)O)cc(C2=C3C=CC(=N3)C(c3cc(C(=O)O)cc(C(=O)O)c3)=c3ccc4[n]3[Pt][n]3c2ccc3C(c2cc(C(=O)O)cc(C(=O)O)c2)=C2C=CC(=N2)C=4c2cc(C(=O)O)cc(C(=O)O)c2)c1 , same question.
5.54
